experiment: Visual assessment of thioglycolipid aggregation and hydrogel formation; assay type: physicochemical; conditions: thioglycolipid concentration 5 wt %, room temperature
ENDPOINT_NAME: Visual assessment of aggregation and gelation

See these solved cases before continuing.
SMILES_REPRESENTATION: CCCCCCCCCCCCS[C@@H]1O[C@H](CO)[C@@H](O[C@@H]2O[C@H](CO)[C@@H](O)[C@H](O)[C@H]2O)[C@H](O)[C@H]1O
RESULT: G or F
//
SMILES_REPRESENTATION: CCCCCCCCS[C@@H]1O[C@H](CO)[C@@H](O[C@@H]2O[C@H](CO)[C@@H](O)[C@H](O)[C@H]2O)[C@H](O)[C@H]1O
RESULT: C
//
SMILES_REPRESENTATION: CCCCCCCCCCCCS[C@@H]1O[C@H](CO)[C@@H](O[C@@H]2O[C@H](CO)[C@H](O)[C@H](O)[C@H]2O)[C@H](O)[C@H]1O
RESULT: G
//
SMILES_REPRESENTATION: CCCCCCCCCCS[C@@H]1O[C@H](CO)[C@@H](O[C@@H]2O[C@H](CO)[C@@H](O)[C@H](O)[C@H]2O)[C@H](O)[C@H]1O
RESULT: G or F
//
SMILES_REPRESENTATION: CCCCCCCCS[C@@H]1O[C@H](CO)[C@@H](O[C@@H]2O[C@H](CO)[C@H](O)[C@H](O)[C@H]2O)[C@H](O)[C@H]1O
RESULT: G

Exam item: Please report the recorded Visual assessment of aggregation and gelation for CCCCCCCCCCS[C@@H]1O[C@H](CO)[C@@H](O[C@@H]2O[C@H](CO)[C@H](O)[C@H](O)[C@H]2O)[C@H](O)[C@H]1O .
Marked response: G

----------
experiment: Visual assessment of thioglycolipid aggregation and hydrogel formation; type: physicochemical; parameters: key: G = gel; F = fibrous aggregation; C = clear solution; O = cloudy solution; settings: thioglycolipid concentration 0.75 wt %, room temperature
ENDPOINT_NAME: Visual assessment of aggregation and gelation

SMILES_REPRESENTATION: CCCCCCCCS[C@@H]1O[C@H](CO)[C@@H](O[C@@H]2O[C@H](CO)[C@@H](O)[C@H](O)[C@H]2O)[C@H](O)[C@H]1O
RESULT: C

SMILES_REPRESENTATION: CCCCCCCCCCCCS[C@@H]1O[C@H](CO)[C@@H](O[C@@H]2O[C@H](CO)[C@H](O)[C@H](O)[C@H]2O)[C@H](O)[C@H]1O
RESULT: G + C

----------
assay: Visual assessment of thioglycolipid aggregation and hydrogel formation; assay type: physicochemical; parameters: key: G = gel; F = fibrous aggregation; C = clear solution; O = cloudy solution; settings: thioglycolipid concentration 1 wt %, room temperature
ENDPOINT_NAME: Visual assessment of aggregation and gelation

SMILES_REPRESENTATION: CCCCCCCCCCCCS[C@@H]1O[C@H](CO)[C@@H](O[C@@H]2O[C@H](CO)[C@H](O)[C@H](O)[C@H]2O)[C@H](O)[C@H]1O
RESULT: G
//
SMILES_REPRESENTATION: CCCCCCCCS[C@@H]1O[C@H](CO)[C@@H](O[C@@H]2O[C@H](CO)[C@H](O)[C@H](O)[C@H]2O)[C@H](O)[C@H]1O
RESULT: G

----------
The reader will find reported Enthalpy (J/g hydrogel) values listed item by item below.
assay: Differential scanning calorimetry of hydrogels (gel-sol phase transition); type: physicochemical; details: 1 wt % hydrogel, gel-sol transition
Response body: numeric value in J/g hydrogel, unit text excluded.

Previously resolved entries follow.
SMILES_REPRESENTATION: CCCCCCCCCCS[C@@H]1O[C@H](CO)[C@@H](O[C@@H]2O[C@H](CO)[C@@H](O)[C@H](O)[C@H]2O)[C@H](O)[C@H]1O
Enthalpy (J/g hydrogel): 0.18
//
SMILES_REPRESENTATION: CCCCCCCCCCCCS[C@@H]1O[C@H](CO)[C@@H](O[C@@H]2O[C@H](CO)[C@@H](O)[C@H](O)[C@H]2O)[C@H](O)[C@H]1O
Enthalpy (J/g hydrogel): 0.42
//
SMILES_REPRESENTATION: CCCCCCCCCCCCS[C@@H]1O[C@H](CO)[C@@H](O[C@@H]2O[C@H](CO)[C@H](O)[C@H](O)[C@H]2O)[C@H](O)[C@H]1O
Enthalpy (J/g hydrogel): 0.39

Now look at this entry.
Exam item: So what does the record say about Enthalpy (J/g hydrogel) for CCCCCCCCS[C@@H]1O[C@H](CO)[C@@H](O[C@@H]2O[C@H](CO)[C@H](O)[C@H](O)[C@H]2O)[C@H](O)[C@H]1O ?
Marked response: 0.20

----------
assay: Visual assessment of thioglycolipid aggregation and hydrogel formation; format: physicochemical; conditions: thioglycolipid concentration 0.75 wt %, room temperature
ENDPOINT_NAME: Visual assessment of aggregation and gelation

SMILES_REPRESENTATION: CCCCCCCCCCS[C@@H]1O[C@H](CO)[C@@H](O[C@@H]2O[C@H](CO)[C@H](O)[C@H](O)[C@H]2O)[C@H](O)[C@H]1O
RESULT: G + C
//
SMILES_REPRESENTATION: CCCCCCCCS[C@@H]1O[C@H](CO)[C@@H](O[C@@H]2O[C@H](CO)[C@H](O)[C@H](O)[C@H]2O)[C@H](O)[C@H]1O
RESULT: G + C

----------
assay: Differential scanning calorimetry of hydrogels (gel-sol phase transition); format: physicochemical; conditions: 1 wt % hydrogel, gel-sol transition
ENDPOINT_NAME: Enthalpy (kJ/mol thioglycolipids)
Give the figure together with its unit, number first.

COMPOUND: CCCCCCCCCCS[C@@H]1O[C@H](CO)[C@@H](O[C@@H]2O[C@H](CO)[C@@H](O)[C@H](O)[C@H]2O)[C@H](O)[C@H]1O [CelSC10]
Enthalpy (kJ/mol thioglycolipids): 9.0 ± 0.6 kJ/mol thioglycolipids
//
COMPOUND: CCCCCCCCCCCCS[C@@H]1O[C@H](CO)[C@@H](O[C@@H]2O[C@H](CO)[C@@H](O)[C@H](O)[C@H]2O)[C@H](O)[C@H]1O [CelSC12]
Enthalpy (kJ/mol thioglycolipids): 22.3 ± 3.3 kJ/mol thioglycolipids
//
COMPOUND: CCCCCCCCS[C@@H]1O[C@H](CO)[C@@H](O[C@@H]2O[C@H](CO)[C@H](O)[C@H](O)[C@H]2O)[C@H](O)[C@H]1O [LacSC8]
Enthalpy (kJ/mol thioglycolipids): 9.2 ± 1.4 kJ/mol thioglycolipids

Okay, next one:
Exam item: State the recorded Enthalpy (kJ/mol thioglycolipids) for this entry: CCCCCCCCCCCCS[C@@H]1O[C@H](CO)[C@@H](O[C@@H]2O[C@H](CO)[C@H](O)[C@H](O)[C@H]2O)[C@H](O)[C@H]1O [LacSC12]
Marked response: 20.7 ± 5.3 kJ/mol thioglycolipids

----------
experiment: Visual assessment of thioglycolipid aggregation and hydrogel formation; format: physicochemical; design: key: G = gel; F = fibrous aggregation; C = clear solution; O = cloudy solution; settings: thioglycolipid concentration 10 wt %, room temperature
ENDPOINT_NAME: Visual assessment of aggregation and gelation

Worked cases, answers included:
SMILES_REPRESENTATION: CCCCCCCCCCCCS[C@@H]1O[C@H](CO)[C@@H](O[C@@H]2O[C@H](CO)[C@H](O)[C@H](O)[C@H]2O)[C@H](O)[C@H]1O
RESULT: G

SMILES_REPRESENTATION: CCCCCCCCCCS[C@@H]1O[C@H](CO)[C@@H](O[C@@H]2O[C@H](CO)[C@@H](O)[C@H](O)[C@H]2O)[C@H](O)[C@H]1O
RESULT: G or F

SMILES_REPRESENTATION: CCCCCCCCS[C@@H]1O[C@H](CO)[C@@H](O[C@@H]2O[C@H](CO)[C@H](O)[C@H](O)[C@H]2O)[C@H](O)[C@H]1O
RESULT: G

SMILES_REPRESENTATION: CCCCCCCCS[C@@H]1O[C@H](CO)[C@@H](O[C@@H]2O[C@H](CO)[C@@H](O)[C@H](O)[C@H]2O)[C@H](O)[C@H]1O
RESULT: C

SMILES_REPRESENTATION: CCCCCCCCCCS[C@@H]1O[C@H](CO)[C@@H](O[C@@H]2O[C@H](CO)[C@H](O)[C@H](O)[C@H]2O)[C@H](O)[C@H]1O
RESULT: G

Exam item: Need Visual assessment of aggregation and gelation of CCCCCCCCCCCCS[C@@H]1O[C@H](CO)[C@@H](O[C@@H]2O[C@H](CO)[C@@H](O)[C@H](O)[C@H]2O)[C@H](O)[C@H]1O , thanks.
Marked response: G or F
